I'd appreciate it if you could supply TGI values for the items below.
- System: K-562 leukemia
- assay-details: NCI tumour cell line growth inhibition, 48 h

Consider the molecule shown here: O=C(O)c1c[nH]c2c(=O)[nH]cnc12 What is its recorded TGI?
> 100 µM

Would you mind doing COc1ccc(OC)c([N+](=O)[O-])c1-c1nc2sccn2c1/C=N/N=C(N)N as well?
> 100 µM

Thanks! And COc1cc(-c2n/c(=C\c3c(O)[nH]c4ccc(Cl)cc34)cc3c2=Nc2ccccc2-3)cc(OC)c1OC ?
10.1 µM

Next molecule: CC12CCC([C@H](N3CCOCC3)/C1=N\OCCN1CCCC1)C2(C)C (stereo partly specified)
> 100 µM

Now the same for O=C(Cc1nc2ccccc2c(=O)n1-c1c(Cl)cccc1Cl)c1ccncc1
> 100 µM

# repeat for Cc1cc(N2CCN(C)CC2)nc(NCc2cc(Nc3ccnc4cc(Cl)ccc34)ccc2F)n1
5.7 µM

Now give it for COc1ccc(-c2nn(-c3ccc(NC(=O)c4ccc(Cl)c(C(F)(F)F)c4)cc3)cc2-c2ccncc2)cc1Cl too.
> 100 µM

Try the molecule CCSc1c(C)c2c(n(Cc3ccc(OC)cc3)c1=O)Cc1ccccc1C2
60.9 µM

Moving on to CC1SC(c2ccccc2)N(Nc2c3ccccc3nc3ccccc23)C1=O (stereo unspecified)
> 100 µM

Please answer likewise for Nc1nc(Cl)c(N)c(NCC2(CO)CC(Cc3ccccc3)C2)n1 (stereo unspecified)
> 94.3 µM

Try the molecule CCCCCCCC(=O)OC[C@@H](C[As](=O)(O)O)OC(=O)CCCCCCC
51.4 µM

Can you handle O=C(/C=C/c1ccccc1)c1c[nH]c2ccccc2c1=O next?
54.8 µM

And O=S1(=O)NNC(=NCc2ccc(Cl)c(Cl)c2)c2ccccc21 ?
> 100 µM

Likewise for C#CCn1c(=O)ccn(/C(=C\C(=O)OCC)C(=O)OCC)c1=O ?
> 100 µM

Next molecule: COc1cc(/C=N/Nc2ncnc3c2cnn3C(C)C)ccc1O
> 25 µM

Same question for COc1cc(C2S/C(=C/c3ccccc3)C(=O)N2c2cc(Cl)ccc2Cl)cc(OC)c1OC (stereo unspecified) please.
> 100 µM

# iterate: O=[N+]([O-])c1cc([N+](=O)[O-])c(Cl)c(Cl)c1Cl
10.9 µM

Queued: Cc1cccc2[nH]c3cc(O)cc(O)c3c(=O)c12
> 10 µM

Now consider N#Cc1nc(C2CC2)oc1N and answer again.
> 100 µM

Again, but for O=C(/C=C1\C(=O)N(Cc2ccc([N+](=O)[O-])cc2)c2ccccc21)c1ccc(OCCN2CCCCC2)cc1
2.2 µM

Same read-out for CC1=CC[C@@H]2C(C)(C)C(=O)CC[C@@]2(C)[C@@H]1COc1ccc2ccc(=O)oc2c1 ?
88.7 µM

Field entry: COc1ccc(-c2cc(-c3ccc(Cl)cc3)n(C3OC(CO)C(O)C(O)C3O)c(=S)c2C#N)cc1 (stereo unspecified)
> 100 µM

Cool, now NCC[Se][Se]CCN
64 µM

# repeat for COc1cc(-c2nn(-c3ccc(NC(=O)Nc4ccc(Cl)c(Cl)c4)cc3)cc2-c2ccncc2)ccc1Cl
> 100 µM

Moving on to the next molecule: C#CCSc1nc(N)c2ncn(C3OC(CO)C(O)C3O)c2n1 (stereo unspecified)
> 100 µM

Lookup CCC[C@H](O)[C@@H](CNc1cc(NC(C)=O)nc(NC(C)=O)n1)N(Cc1ccccc1)Cc1ccccc1
> 100 µM

Further, for O=C(C/C(=N\NC(=O)C[n+]1ccccc1)C(=O)Nc1nc2ccc([N+](=O)[O-])cc2s1)CC(c1ccccc1)c1c(O)c2ccccc2oc1=O (stereo unspecified) ?
> 100 µM

Note, next up: CCCN(CCCN)/[N+]([O-])=N\O
> 100 µM

Subsequent entry: Cc1ccc(NC(=O)CC/C(CC(=O)C(C)(C)C)=N/NC(=O)C(N)=O)cc1C
> 100 µM

Please answer likewise for CN(C)c1ccc(-c2ccc(-c3ccc(C(=N)N)c(F)c3)s2)cc1
0.699 µM

Cool, now NCCC(=O)N[C@H](Cc1cc(O)c(O)c(SCC(NC(=O)CC[C@H](N)C(=O)O)C(=O)NCC(=O)O)c1)C(=O)O (stereo partly specified)
> 50 µM

Now this one: Cc1c(C(=O)CC(=O)C(=O)Nc2c(C(C)C)cccc2C(C)C)[n+](=O)c2ccccc2n1[O-]
31.1 µM

Another molecule to check: COC(=O)/C=C/c1cnc2c(c1)oc(=O)n2CCc1ccccn1
> 100 µM

What about CN1CCC(CNC(=O)CCCCCCCCC(=O)NCC2(c3ccccc3)CCN(C)CC2)(c2ccccc2)CC1 ?
> 100 µM

What about this molecule? CSc1c(C#N)c(O)n(-c2ccc(C)cc2)c(=O)c1C#N
> 100 µM

Further, for C=C[C@@H](OCOCC[Si](C)(C)C)[C@@H](CC)OC(CCCOC(=O)C(C)(C)C)OC (stereo partly specified) ?
> 100 µM

Similarly, CN(CCC#N)c1ccc(/C=C(\C#N)c2cccc(C(F)(F)F)c2)cc1 ?
> 100 µM

And CN(C)/C(N)=N/C(N)=Nc1cccc(Cl)c1 ?
> 100 µM

Same question for COc1ccc(C(C#N)NC23CC4CC(CC(C4)C2)C3)cc1OC (stereo unspecified) please.
> 100 µM

Likewise for CN(C)CCNc1ccc2ncnc3c2c1C(=O)c1ccccc1-3 ?
6.75 µM

Entry CSc1ccccc1P(c1ccccc1SC)c1ccccc1SC please
> 100 µM

====

- Tested on: COLO 205 colon
- assay-details: NCI tumour cell line growth inhibition, 48 h
experimental-readout: TGI

Item CC[C@@]1(OC(=O)CN)C(=O)OCc2c1cc1n(c2=O)Cc2cc3cc4c(cc3nc2-1)OCO4 has what recorded TGI?
1.53 µM

What do you get for C[n+]1noc(/N=N\[O-])c1-c1cc(-c2c(/N=N\[O-])on[n+]2C)cc(-c2c(/N=N/[O-])on[n+]2C)c1 ?
> 100 µM

Try the molecule CC(C)(C)N/N=C(\Cc1occc(=O)c1O)C(=O)Nc1ccc([N+](=O)[O-])cc1[N+](=O)[O-]
> 100 µM

Quick one: COc1cc(/C=N/Nc2ncnc3c2cnn3C(C)C)ccc1O
> 25 µM

====

- System: M14 melanoma
- assay-details: NCI tumour cell line growth inhibition, 48 h
experimental-readout: TGI

Requested field: TGI. Item: NC(N)=NS(=O)(=O)c1ccc(Nc2c3ccccc3nc3c(C(=O)N4CCN(CCO)CC4)cccc23)cc1
> 100 µM

Lookup COc1cc(-c2nn(-c3ccc(NC(=O)Nc4ccc(Cl)c(Cl)c4)cc3)cc2-c2ccncc2)ccc1Cl
6.87 µM

Please answer likewise for Cc1cccc2[nH]c3cc(O)cc(O)c3c(=O)c12
> 10 µM

Another compound to look at: CN(C)c1ccc2c(c1)CN1C(=O)c3ccccc3C1=N2
> 100 µM

Item: CC1=C(C(=O)N[C@@H](Cc2ccccc2)C(=O)O)N2C(=O)[C@@H](NC(=O)[C@@H](N)CC(C)C)[C@H]2SC1
> 100 µM

# iterate: Clc1ccccc1C(n1ncc2ccccc21)n1ncc2ccccc21
> 100 µM

Also CC(C)N(C(=O)C12C3C4C5C3C1(C(=O)N(C(C)C)C(C)C)C5(C#N)C42)C(C)C (stereo unspecified) , if possible.
> 100 µM

Again, but for COC(=O)CCC(C)[C@H]1CCC2C3C(C[C@H](OC(C)=O)[C@@]21C)[C@@]1(C)CCC2(C[C@H]1C[C@H]3OC(C)=O)OOC1(CCC(C)CC1)OO2 (stereo partly specified)
> 100 µM

Now give it for O=C(O)c1nc2cc(C(F)(F)F)ccc2nc1Nc1ccc(Cl)c(Cl)c1 too.
26 µM

Request: CNC(=S)N/N=C1\CC(c2ccccc2)Oc2ccccc21 (stereo unspecified)
> 100 µM

Thanks! And C#CCn1c(=O)ccn(/C(=C\C(=O)OCC)C(=O)OCC)c1=O ?
10.3 µM

Now the same for O=c1[nH][nH]c(=O)[nH]1
> 100 µM

What do you get for CC(=O)Nc1ccc(-c2c3nc(c(-c4cc5ccccc5[n+](C)c4)c4ccc([nH]4)c(-c4ccc(NC(C)=O)cc4)c4nc(c(-c5cc6ccccc6[n+](C)c5)c5ccc2[nH]5)C=C4)C=C3)cc1 ?
> 50 µM

Repeat for the following compound: COc1cc(/C=N/Nc2ncnc3c2cnn3C(C)C)ccc1O
> 25 µM

Now the same for O=S1CSCS1 (stereo unspecified)
> 100 µM

Continue with COc1cccc(C(=O)Nc2ccc(CN3CCc4nc5cc(OC)c(OC)cc5cc43)cc2)c1
16.4 µM

====

Answer each item with its documented TGI.
- Test system: MDA-MB-231 breast
- assay-details: NCI tumour cell line growth inhibition, 48 h
# output: bare number, implied unit µM

Data request, read-out TGI, for CCN(CC)C(=O)CC1=C(C)/C(=C/c2[nH]c(-c3ccc[nH]3)cc2OC)N=C1C
0.909

Can you handle COc1ccc(C2=C(Cl)c3cc(OC)c(OC)cc3C2=O)cc1OC next?
36.5

Can you handle O=C(/C=C1\C(=O)N(Cc2ccc([N+](=O)[O-])cc2)c2ccccc21)c1ccc(OCCN2CCCCC2)cc1 next?
2.67
